# ASSAY TEXT: xn = mol fraction of the nth substance listed
# CONDITION PARAMETERS: 313.15 K; 101 kPa; Liquid; x1 = 0.9844
READOUT NAME: mass density (kg/m3)

>>> reported_value("OCCN1CCOCC1 [4-morpholineethanol] + CCC(C)O")
1056.06
>>> reported_value("OCCN1CCOCC1 [4-morpholineethanol] + CCO")
1058.55
>>> reported_value("OCCN1CCOCC1 [4-morpholineethanol] + CCCCO")
1056.05
>>> reported_value("OCCN1CCOCC1 [4-morpholineethanol] + CC(C)O")
1056.62

====

# CONDITION PARAMETERS: 323.15 K; 101.33 kPa; Liquid
mass density reference
READOUT NAME: mass density (kg/m3)

>>> reported_value("CC(C)O [propan-2-ol]")
758.71
>>> reported_value("CCO [ethanol]")
764.14
>>> reported_value("CCCO [propan-1-ol]")
778.97
>>> reported_value("CCC(C)O (stereo unspecified) [butan-2-ol]")
784.92
>>> reported_value("CCCCO [butan-1-ol]")
786.67
>>> reported_value("OCCN1CCOCC1 [4-morpholineethanol]")
1052.64

====

# CONDITION PARAMETERS: 293.15 K; 101.33 kPa; Liquid
READOUT NAME: mass density (kg/m3)

>>> reported_value("CCC(C)O (stereo unspecified) [butan-2-ol]")
805.56
>>> reported_value("CCCCO [butan-1-ol]")
809.52
>>> reported_value("CCCO [propan-1-ol]")
803.56
>>> reported_value("CC(C)O [propan-2-ol]")
785.18
>>> reported_value("OCCN1CCOCC1 [4-morpholineethanol]")
1076.58
>>> reported_value("CCO [ethanol]")
788.33

====

# CONDITION PARAMETERS: 298.15 K; 101.33 kPa; Liquid
READOUT NAME: mass density (kg/m3)

>>> reported_value("CCCO [propan-1-ol]")
799.71
>>> reported_value("OCCN1CCOCC1 [4-morpholineethanol]")
1071.3
>>> reported_value("CC(C)O [propan-2-ol]")
781.31
>>> reported_value("CCO [ethanol]")
784.97
>>> reported_value("CCCCO [butan-1-ol]")
805.88
>>> reported_value("CCC(C)O (stereo unspecified) [butan-2-ol]")
802.43

====

# ASSAY TEXT: xn = mol fraction of the nth substance listed
# CONDITION PARAMETERS: 298.15 K; 101 kPa; Liquid; x1 = 0.9844
Numbers after ± are expanded uncertainties.
READOUT NAME: mass density

>>> reported_value("OCCN1CCOCC1 [4-morpholineethanol] + CC(C)O")
"1068.93 ± 0.69 kg/m3"
>>> reported_value("OCCN1CCOCC1 [4-morpholineethanol] + CCC(C)O")
"1068.39 ± 0.68 kg/m3"
>>> reported_value("OCCN1CCOCC1 [4-morpholineethanol] + CCCCO")
"1068.51 ± 0.68 kg/m3"
>>> reported_value("OCCN1CCOCC1 [4-morpholineethanol] + CCO")
"1070.4 ± 0.7 kg/m3"

====

Reported mass density values are given for each entry in this list.
# ASSAY TEXT: xn = mol fraction of the nth substance listed
# CONDITION PARAMETERS: 293.15 K; 101 kPa; Liquid; x1 = 0.9844
READOUT NAME: mass density (kg/m3)

>>> reported_value("OCCN1CCOCC1 [4-morpholineethanol] + CC(C)O")
1074.11
>>> reported_value("OCCN1CCOCC1 [4-morpholineethanol] + CCC(C)O")
1073.45
>>> reported_value("OCCN1CCOCC1 [4-morpholineethanol] + CCO")
1075.58
>>> reported_value("OCCN1CCOCC1 [4-morpholineethanol] + CCCCO")
1073.74
